procedureText: chemical genetic growth profiling, strain panel (AID 1159580);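 further: tested at 20 µM; growth read once vehicle control cultures reached saturation at 30 °C; 1 = growth at the plate median or of vehicle wells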
experimentalParameters: S. cerevisiae deletion strains, growth OD, locus YGL078C, strain dbp3
The campaign covered roughly 5,500 compounds. About 2,000 (36%) were called active. Not shown: some 18% with an inconclusive outcome. No stated cut-off is given here; in the data, active means normalized growth mostly below about 0.91 (no sharp cut-off); inconclusive means no clear call, values can overlap the other calls; inactive means mostly above about 0.92. Some of the results follow.
Valid outcomes are listed here; reply with one: active, inactive

Sample answers from the record:
{"compound": "CN1CCN2c3ccccc3Cc3ccccc3C2C1 (stereo unspecified)", "discreteLabel": "inactive"}
{"compound": "O=C1CC[C@]23C=CC(=O)NCCCCNCCCNC(=O)/C=C/c4ccc(c2c4)O[C@@H]3C1", "discreteLabel": "inactive"}
{"compound": "C=C1C2CC[C@@]3(C)[C@H](c4ccoc4)OC(=O)C[C@]13O[C@H]1CC(=O)C(C)(C)[C@H](C(O)C(=O)OC)[C@@]21C (stereo partly specified)", "discreteLabel": "inactive"}
{"compound": "C[C@@H]1CC[C@@]2(OC1)OC1C(O)C3C4CC[C@H]5C[C@H](O[C@@H]6O[C@H](CO)[C@H](O[C@@H]7O[C@H](CO)[C@@H](O)[C@H](O[C@@H]8OC[C@@H](O)[C@H](O)[C@H]8O)[C@H]7O[C@@H]7O[C@H](CO)[C@H](O)[C@H](O[C@@H]8O[C@H](CO)[C@@H](O)[C@H](O)[C@H]8O)[C@H]7O)[C@H](O)[C@H]6O)[C@H](O)C[C@]5(C)C4CC[C@]3(C)C1[C@@H]2C (stereo partly specified)", "discreteLabel": "active"}
{"compound": "COC(=O)C[C@H]1C(C)(C)C(=O)[C@@H]2CC3=C4CC(OC)O[C@@H](c5ccoc5)[C@]4(C)CCC3[C@@]1(C)C2=O (stereo partly specified)", "discreteLabel": "inactive"}
{"compound": "CC[N+]1(C)CCCC(OC(=O)C(O)(c2ccccc2)c2ccccc2)C1 (stereo unspecified)", "discreteLabel": "inactive"}
{"compound": "O=C(O)/C=C(\\CC(=O)O)C(=O)O", "discreteLabel": "inactive"}
{"compound": "COc1c(O)cccc1O", "discreteLabel": "inactive"}

Called result for `COc1ccc(-c2cc(=O)c3c(OC)cccc3o2)cc1`
inactive

Called result for `C[N+]1(CCCCC[N+]2(C)CCCC2)CCCC1`
inactive

Called result for `COc1ccc(-c2cc(=O)c3ccccc3o2)cc1OC`
active

Called result for CC(=O)O[C@H]1C[C@H](O[C@H]2[C@@H](O)C[C@H](O[C@H]3[C@@H](O)C[C@H](O[C@H]4CC[C@@]5(C)C(CCC6C5C[C@@H](O)[C@]5(C)[C@@H](C7=CC(=O)OC7)CC[C@]65O)C4)O[C@@H]3C)O[C@@H]2C)O[C@H](C)[C@H]1O[C@@H]1O[C@H](CO)[C@@H](O)[C@H](O)[C@H]1O (stereo partly specified)
inactive

Called result for `COc1ccc(-c2cc(=O)c3ccccc3o2)cc1`
inactive

Called result for `CC(=O)N(O)CCCCCNC(=O)CCC(=O)N(O)CCCCCNC(=O)CCC(=O)N(O)CCCCCN`
inactive

Called result for `COc1c(O)cc2c(-c3ccccc3)cc(=O)oc2c1OC`
inactive

Called result for C=CCCCCCCCCCCCC(O)CC(O)CO (stereo unspecified)
inactive

----------
procedureText: chemical genetic growth profiling, strain panel (AID 1159580)
experimentalParameters: S. cerevisiae deletion strains, growth OD, locus YJL187C, strain SWE1
Screen size: about 5,500 compounds; about 2,000 (36%) were called active. Another 18% or so got no clear call; they are omitted. Rule as the data show it: active = normalized growth mostly below about 0.91 (no sharp cut-off); inconclusive = no clear call, values can overlap the other calls; inactive = mostly above about 0.92. This is one part of the list.
Valid outcomes are listed here; reply with one: active, inactive

{"compound": "CCCCCn1c(Sc2ncc([N+](=O)[O-])s2)n[nH]c1=O", "discreteLabel": "active"}
{"compound": "CCCCC1C(=O)N(c2ccccc2)N(c2ccccc2)C1=O", "discreteLabel": "inactive"}
{"compound": "O=C1CN2Cc3c(ccc(Cl)c3Cl)N=C2N1", "discreteLabel": "inactive"}

Query compound follows.
Called result for `CCCCCCCCCCc1ccc(-c2ccccc2)cc1`
inactive

----------
procedureText: chemical genetic growth profiling, strain panel (AID 1159580)
experimentalParameters: S. cerevisiae deletion strains, growth OD, locus YLR027C, strain aat2
Out of some 5,500 compounds screened, about 2,000 (36%) were called active. Roughly 18% stayed inconclusive and do not appear here. Cut-off read from the data, not from the text of the source: active = normalized growth mostly below about 0.91 (no sharp cut-off); inconclusive = no clear call, values can overlap the other calls; inactive = mostly above about 0.92. The list shows a part of the results.
Valid outcomes are listed here; reply with one: active, inactive

Sample answers from the record:
{"compound": "CC(=O)OCC(=O)[C@@]1(O)CCC2C3CC[C@@H]4C[C@H](O)CC[C@]4(C)C3C(=O)C[C@@]21C (stereo not given in full)", "discreteLabel": "inactive"}
{"compound": "CCC(/C=C/[C@@H](C)[C@H]1CCC2C3CC=C4C[C@@H](O)CC[C@]4(C)C3CC[C@@]21C)C(C)C (stereo not given in full)", "discreteLabel": "inactive"}
{"compound": "N[C@H](CO)Cc1ccccc1", "discreteLabel": "inactive"}

Called result for CC(=O)OCC(=O)[C@H]1CCC2C3CC=C4C[C@@H](O)CC[C@]4(C)C3CC[C@@]21C (stereo not given in full)
active

Called result for `CC(=O)Oc1ccc(-c2cc(=O)c3c(OC(C)=O)cc(OC(C)=O)cc3o2)cc1`
inactive

----------
procedureText: chemical genetic growth profiling, strain panel (AID 1159580);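 further: tested at 20 µM; growth read once vehicle control cultures reached saturation at 30 °C; 1 = growth at the plate median or of vehicle wells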
experimentalParameters: S. cerevisiae deletion strains, growth OD, locus YER015W, strain faa2
Screen size: about 5,500 compounds; about 2,000 (36%) were called active. Another 18% or so got no clear call; they are omitted. Rule as the data show it: active = normalized growth mostly below about 0.91 (no sharp cut-off); inconclusive = no clear call, values can overlap the other calls; inactive = mostly above about 0.92. The list shows a part of the results.
Valid outcomes are listed here; reply with one: active, inactive

{"molecule": "CC(C)c1ccc2c(c1O)CC[C@H]1C3=C(CC[C@]21C)C(=O)OC3", "discreteLabel": "inactive"}
{"molecule": "CC(=O)[C@H]1CCC2C3CC=C4C[C@@H](O)CC[C@]4(C)C3CC[C@@]21C (stereo partly specified)", "discreteLabel": "inactive"}

Called result for `COc1cc2cc[n+]3cc4c(OC)c(OC)ccc4cc3c2cc1OC`
inactive

Called result for `COC(=O)C1=C(C)NC(C)=C(C(=O)OC)C1c1ccccc1[N+](=O)[O-]`
active

Called result for CC[N+]1(C)CCCC(OC(=O)C(O)(c2ccccc2)c2ccccc2)C1 (stereo unspecified)
inactive

Called result for `O=c1cc(-c2ccc(O)cc2)oc2ccc(O)cc12`
inactive

Called result for CC(C(=O)O)[C@H]1CCC2C3CC=C4C[C@@H](O)CC[C@]4(C)C3CC[C@@]21C (stereo partly specified)
inactive

Called result for `COc1ccc(-c2cc(=O)c3c(O)c(OC)c(OC)c(OC)c3o2)cc1`
inactive

Called result for `CC(C)=CCc1c2c(c(O)c3c(=O)c(O)c(-c4ccccc4)oc13)C=CC(C)(C)O2`
active

Called result for `COc1cccc(-c2cc(=O)c3ccc(OC)cc3o2)c1`
inactive

Called result for COc1cc([C@@H]2c3cc4c(cc3C(O[C@@H]3O[C@@H]5CO[C@@H](c6cccs6)OC5[C@H](O)[C@H]3O)C3COC(=O)[C@@H]32)OCO4)cc(OC)c1O (stereo partly specified)
inactive

----------
procedureText: chemical genetic growth profiling, strain panel (AID 1159580);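 further: tested at 20 µM; growth read once vehicle control cultures reached saturation at 30 °C; 1 = growth at the plate median or of vehicle wells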
experimentalParameters: S. cerevisiae deletion strains, growth OD, locus YPR141C, strain kar3, stronger effect = lower value
In all, about 5,500 compounds went through this assay and about 2,000 (36%) were called active. Not shown: some 18% with an inconclusive outcome. The list shows a part of the results.
Reported normalized growth values for the following compounds.
Give the figure by itself; no unit, no explanation.

{"testSmiles": "CC(C)[C@]12O[C@H]1[C@@H]1O[C@@]13[C@@]1(C)CCC4=C(COC4=O)[C@@H]1C[C@@H]1O[C@@]13C2=O", "normalized growth": 0.987}
{"testSmiles": "CC(C)(Oc1ccc(Cl)cc1)C(=O)O", "normalized growth": 0.982}
{"testSmiles": "O=C1CCc2cc(OCCCCc3nnnn3C3CCCCC3)ccc2N1", "normalized growth": 1}

Entry under review: `CCC/C=C/C=C/[C@@H]1C[C@@H](O)[C@@H](O)C(=O)[C@H]1C=O` . Reported normalized growth?
0.804

----------
procedureText: chemical genetic growth profiling, strain panel (AID 1159580);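 further: tested at 20 µM; growth read once vehicle control cultures reached saturation at 30 °C; 1 = growth at the plate median or of vehicle wells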
experimentalParameters: S. cerevisiae deletion strains, growth OD, strain wtn01, stronger effect = lower value
Hit rate of the full screen: of about 5,500 compounds, about 2,000 (36%) were called active. Not shown: some 18% with an inconclusive outcome. This is one part of the list.
observedProperty: normalized growth
Give the figure by itself; no unit, no explanation.

{"compound": "C=C1C2CC[C@@]3(C)[C@H](c4ccoc4)OC(=O)C[C@]13O[C@H]1CC(=O)C(C)(C)[C@H](C(O)C(=O)OC)[C@@]21C (some centres undefined)", "observedProperty": "normalized growth", "experimentalResult": 1}
{"compound": "O=c1oc2ccccc2c(O)c1Cc1c(O)c2ccccc2oc1=O", "observedProperty": "normalized growth", "experimentalResult": 0.978}
{"compound": "CC(=O)Oc1c(-c2ccccc2)oc2c(CC=C(C)C)c3c(c(OC(C)=O)c2c1=O)C=CC(C)(C)O3", "observedProperty": "normalized growth", "experimentalResult": 1.03}
{"compound": "N[C@@H]1CONC1=O", "observedProperty": "normalized growth", "experimentalResult": 1.02}
{"compound": "CC(C)=CCc1c2c(c(O)c3c(=O)c(O)c(-c4ccccc4)oc13)C=CC(C)(C)O2", "observedProperty": "normalized growth", "experimentalResult": 0.632}

Entry under review: C[C@@H]1CC[C@@]2(OC1)OC1C(O)C3C4CC[C@H]5C[C@H](O[C@@H]6O[C@H](CO)[C@H](O[C@@H]7O[C@H](CO)[C@@H](O)[C@H](O[C@@H]8OC[C@@H](O)[C@H](O)[C@H]8O)[C@H]7O[C@@H]7O[C@H](CO)[C@H](O)[C@H](O[C@@H]8O[C@H](CO)[C@@H](O)[C@H](O)[C@H]8O)[C@H]7O)[C@H](O)[C@H]6O)[C@H](O)C[C@]5(C)C4CC[C@]3(C)C1[C@@H]2C (some centres undefined) . Reported normalized growth?
0.0611

Entry under review: CC1(C)O[C@@H]2CC3C4C[C@H](F)C5=CC(=O)C=C[C@]5(C)[C@@]4(F)[C@@H](O)C[C@]3(C)[C@]2(C(=O)CO)O1 (some centres undefined) . Reported normalized growth?
1.01

Entry under review: `O=c1c2ccccc2oc2ccc(O)cc12` . Reported normalized growth?
0.931

Entry under review: CN1CCN2c3ccccc3Cc3ccccc3C2C1 (centres undefined) . Reported normalized growth?
0.97
